# credit: patent US20190382504A1

# SYSTEM_NAME: biotinylated recombinant ESO157/HLA-A*02:06 complex (human)
# ASSAY_NAME: BLI (Octet QK), biotinylated pMHC on streptavidin sensor, BsAb 10 ug/mL
# pKd listing for each entry below
Scale note: pKd = -log10(concentration in M).

Example cases with answers are listed next.
{"BINDER": "ESO157 BsAb #66 (anti-ESO157/HLA-A*02:01 scFv x anti-human CD3epsilon scFv, single chain) (bispecific antibody) QSVLTQPPSVSGAPGQRVTISCTGSSSNIGAGYDVHWYQQLPGTAPKLLIYGNSNRPSGVPDRFSGSKSGTSASLAITGLQAEDEADYYCQSYDSSLSGSWVFGGGTKLTVLGSRGGGGSGGGGSGGGGSLEMAEVQLVESGAEVKRPGASVKVSCKASGYTFTSYGISWVRQAPGQGLEWMGRFIPNLNKGNSAHKFEGRVSFTADKFTNTAYMELRGLKSDDTAVYYCARGDYGSDQWGQGTLVTVSS", "pKd": 7.24}
{"BINDER": "ESO157 BsAb #52 (anti-ESO157/HLA-A*02:01 scFv x anti-human CD3epsilon scFv, single chain) (bispecific antibody) QSVLTQPPSVSGAPGQRVTISCTGSSSNIGAGYDVHWYQQLPGTAPKLLIYGDTNRPSGVPDRISGSKSGTSASLAITGLQAEDEADYYCQSYDSNLYTYVFGTGTKVTVLGSRGGGGSGGGGSGGGGSLEMAQVQLVQSGAEVKKPGASVKVSCKASGYTFTSYGISWVRQAPGQGLEWMGWISAYNGNTNYAQKLQGRVTMTTDTSTSTAYMELRSLRSDDTAVYYCARYSGYYAGDSWGQGTLVTVSS", "pKd": 6.85}

Next binder, pKd to be filled in.
q: Please report the recorded pKd for ESO157 BsAb #35 (anti-ESO157/HLA-A*02:01 scFv x anti-human CD3epsilon scFv, single chain) (bispecific antibody, not shown: small tags and cut ends, also called NY-ESO-1 BsAb #35) scFv: QSVVTQPPSVSAAPGQKVTISCSGSSSNIGNNYVSWYQQLPGTAPKLLIYDNNKRPSGIPDRFSGSKSGTSATLGITGLQTGDEADYYCGTWDSSLSAWVFGGGTKLTVLGSRGGGGSGGGGSGGGGSLEMAQVQLVQSGAEVKKPGSSVKVSCKASGDTFSSYSISWVRQAPGQGLEWMGRIIPILGIANYAQKYQGRVTLSADKSTSTSYMELNSLRSEDTAVYYCARDWSYSIDYWGQGTLVTVSS .
a: 7.11
